Each recorded value in this set is attributed to patent US4250176A.

# Tested on: Guinea-pig ileum strips, histamine-induced contraction
# Procedure Details: Anti-histamine activity in "vitro": histamine-induced spasms of guinea-pig ileum strips
# Assay type: cell-based
# Conditions Used: Cavia porcellus, 5 min; Table I-a; histamine 0.5 mg/liter, 5 minutes incubation; concentration giving significant inhibition (50%) of the contraction; read-out: Histamine in "vitro" (ileum) effective conc.
Overview of recorded IC50 for various compounds
Form entry: value (µg/mL) — number only.

compound="O=c1[nH]c2ccccc2n1CCCN1CCN(C(c2ccccc2)c2ccc(Br)cc2)CC1 (stereo not drawn)" endpoint_value=0.16
compound=O=c1n(CO)c2ccccc2n1CCCN1CCN(C(c2ccccc2)c2ccccc2)CC1 endpoint_value=0.01
compound="O=c1[nH]c2ccccc2n1CCCN1CCN(C(c2ccccc2)c2ccc(F)cc2)CC1 (stereo not drawn)" endpoint_value=0.01
compound="Cn1c(=O)n(CCCN2CCN(C(c3ccccc3)c3ccccc3)CC2)c2ccccc21 [hydrate]" endpoint_value=0.01

Name the reported IC50 value associated with the compound `O=c1[nH]c2cc(C(F)(F)F)ccc2n1CCCN1CCN(C(c2ccccc2)c2ccccc2)CC1` 0.02

Name the reported IC50 value associated with the compound `Cc1ccc2c(c1)[nH]c(=O)n2CCN1CCN(C(c2ccccc2)c2ccccc2)CC1` 0.01

---

Overview of recorded IC50 for various compounds
# Tested on: Guinea-pig ileum strips, histamine-induced contraction
# Procedure Details: Anti-histamine activity in "vitro": histamine-induced spasms of guinea-pig ileum strips
# Type: cell-based
# Conditions Used: Cavia porcellus, 5 min; Table I-a; histamine 0.5 mg/liter, 5 minutes incubation; concentration giving significant inhibition (50%) of the contraction; read-out: Histamine in "vitro" (ileum) effective conc.
Form entry: value (µg/mL) — number only.

// solved cases for IC50 follow
compound="O=c1[nH]c2ccccc2n1CCN1CCN(C(c2ccccc2)c2ccccc2)CC1 [I-a: L=H, R1=H, R2=H, (CH2)2, R6=H, R7=H]" endpoint_value=0.01
compound="O=c1[nH]c2ccccc2n1CCN1CCN(C(c2ccc(F)cc2)c2ccc(F)cc2)CC1 [hemihydrate]" endpoint_value=0.02
compound=O=c1[nH]c2cccc(Cl)c2n1CCCN1CCN(C(c2ccccc2)c2ccccc2)CC1 endpoint_value=0.08
compound="O=c1[nH]c2ccccc2n1CCCCCCN1CCN(C(c2ccccc2)c2ccccc2)CC1 [I-a: L=H, R1=H, R2=H, (CH2)6, R6=H, R7=H]" endpoint_value=0.01

Moving on to the next compound.
Name the reported IC50 value associated with the compound `Cc1ccc2c(c1)[nH]c(=O)n2CCCN1CCN(C(c2ccccc2)c2ccccc2)CC1` 0.01

---

# System: Guinea pigs sensitized to ovalbumin (anaphylactic shock)
# Procedure Details: Anaphylaxis in guinea pigs: protection against death after ovalbumin challenge (survival)
# Type: in vivo, guinea pig
# Conditions Used: Cavia porcellus; Table I-a; estimated ED50, oral; protection against death after i.v. 0.6 mg ovalbumin; read-out: Anaphylaxis in guinea pigs oral effective dose in mg/kg: Survival
Result Type: ED50

// solved cases for ED50 follow
compound="O=C(O)Cn1c(=O)n(CCCN2CCN(C(c3ccccc3)c3ccccc3)CC2)c2ccccc21 [hemihydrate]" endpoint_value="< 2.5 mg/kg"
compound="O=c1[nH]c2ccccc2n1CCCN1CCN(C(c2ccccc2)c2ccc(Br)cc2)CC1 (stereo not drawn)" endpoint_value="< 2.5 mg/kg"

Moving on to the next compound.
What is its ED50 for Guinea pigs sensitized to ovalbumin (anaphylactic shock)? Entry: O=c1[nH]c2ccccc2n1CCCN1CCN(C(c2ccccc2)c2ccccc2F)CC1 (stereo not drawn) < 2.5 mg/kg
